- assay-text: NCI Yeast Anticancer Drug Screen. Data for the sgs1 strain (AID 173);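 further: 0% = growth of vehicle-only control cultures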
- test-parameters: S. cerevisiae sgs1 mutant, at 100.0 µM, hits give high values
Compounds without any hit were thinned out: in the full panel of roughly 79,000, 15% have a hit.
observation-type: growth inhibition (%)
Your answer should be a plain number; it is taken to be in %.

CCOP(=O)(OCC)/C(C#N)=C/c1ccc(-c2ccc(F)cc2F)o1 : -1
COc1ccc2nc(CCc3ccccc3)ccc2c1 : 96
Cc1cc(O)c(C(C)C)cc1SC#N : 98

### Prompt Find the measured growth inhibition of Cc1cccc(/C=N/NC(=S)NC2CCCCC2)n1 and report it.
### Response 29

### Prompt Give the reported value of growth inhibition for this record: O=[N+]([O-])c1ccc(C(c2c[nH]c3ccccc23)c2c[nH]c3ccccc23)cc1
### Response 88

### Prompt Given CC/C(=C(\c1ccccc1)c1ccc(OCC[N+](C)(C)C)cc1)c1ccccc1 , respond with its growth inhibition.
### Response 99

### Prompt Please list growth inhibition recorded for the molecule O=C(CCCN1CCC(Nc2ccc(F)cc2)(c2nnnn2C2CCCCC2)CC1)c1ccc(F)cc1
### Response 98

### Prompt Find the measured growth inhibition of OC(c1ccccc1)(c1ccccc1)c1nccc2ccccc12 and report it.
### Response 71

### Prompt Input Cc1oc2ccccc2c(=O)c1Cn1nnc2ccccc21 , output reported growth inhibition.
### Response 68

### Prompt Consider the molecule O=C(Nn1c(-c2ccccc2)nc2ccccc2c1=O)c1ccc(CS)cc1 and give its recorded growth inhibition.
### Response 98

### Prompt Tell me measured growth inhibition for COC(=O)C1CCCCC1C(=O)Nc1ccccc1 (centres undefined) please.
### Response 1

### Prompt Write down growth inhibition measured for item O=C1C2=C(c3ccccc31)C(c1ccccc1)N1C(=O)CSC1=N2 (centres undefined)
### Response 77

### Prompt Specify reported growth inhibition for the molecule shown: COc1ccc(C(C)c2cc3c(cc2OC(C)O)OCO3)cc1 (centres undefined)
### Response 92

### Prompt For the molecule CN(C)CC(CN(C)C)C(=O)/C=C/c1ccc(Cl)cc1Cl , give its reported growth inhibition.
### Response 98

### Prompt Consider the molecule CN(C)CCNC(=Cc1ccc2ccccc2[n+]1C)NCCN(C)C . State its measured growth inhibition.
### Response 1

### Prompt Return growth inhibition for the following molecule: O=P(C(=S)Nc1c(Cl)cccc1Cl)(c1ccccc1)c1ccccc1
### Response 95

### Prompt Specify growth inhibition for CC(=O)O[C@H]1CC[C@@]2(C)C(=CC[C@@H]3C2CC[C@]2(C)C(=O)NC(=O)CC32)C1 (some centres undefined) and stop.
### Response 79

### Prompt Note down growth inhibition recorded for O=C(/C=C/c1ccsc1)c1cccs1
### Response 83

### Prompt Please report the measured growth inhibition for Cc1ccccc1NC(=O)c1c(C)oc2c1C(=O)c1ccccc1C2=O
### Response 83

### Prompt Read off the recorded growth inhibition for CCN1CCC(O)(c2ccc(Oc3ccc(Cl)cc3)cc2)C(C(=O)c2ccc(Oc3ccc(Cl)cc3)cc2)C1 (centres undefined)
### Response 33

### Prompt Quote growth inhibition reported for c1ccc2c(c1)N=C1CCCC3CCCC123 (centres undefined) please.
### Response 99

----------
Property: growth inhibition; scope: individual molecules
- assay-text: NCI Yeast Anticancer Drug Screen. Data for the wt2 strain (AID 169);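 further: 0% = growth of vehicle-treated yeast cultures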
- test-parameters: S. cerevisiae wt2 strain growth inhibition; at 1.2 µM; hits give high values
The panel holds about 79,000 compounds, 15% with a hit somewhere; the sample as a whole holds those more often.
API: value field is a number in %; no unit string.

Guide cases for growth inhibition, answers given:
O=[N+]([O-])c1cc[n+]([O-])c(Cl)c1 : -55
ClCCCOc1c(Cl)cc(Cl)cc1Cl : -7
C[C@H](CCC1=NC(C)(C)CO1)C1CCC2[C@@H]3C(O)C[C@@H]4CC(O)CC[C@]4(C)C3CC[C@@]21C (stereo partly drawn) : -4
O=C(CCSC1=NCCCN1)c1ccc(F)cc1 : -12

Kindly consider the entry below.
### Prompt Determine from records and report growth inhibition for O=C(O)c1cc2c(cc1S(=O)(=O)O)C1C(C3C2C2(Cl)C(Cl)=C(Cl)C3(Cl)C2(Cl)Cl)C2(Cl)C(Cl)=C(Cl)C1(Cl)C2(Cl)Cl (stereo not drawn)
### Response 1

Source of measurements: PubChem BioAssay (NCI)
